Tested on: XF 498 CNS
ASSAY_PROTOCOL: NCI tumour cell line growth inhibition, 48 h
REPORTED_METRIC: TGI

Worked set:
MOLECULE	TARGET_SYSTEM	READING
CO/N=C/c1cc(OC)c(OC)c(OC)c1	XF 498 CNS	> 100 µM
Cc1ccc(NC(=O)C(=O)C(C(=O)c2ccc3ccccc3c2)C2OC(=O)c3ccccc32)cc1C (stereo not drawn)	XF 498 CNS	18.2 µM
C=C(c1nc2ccc(Cl)cc2[nH]c1=O)C(O)c1ccc(C(O)C(=O)c2nc3ccc(Cl)cc3[nH]c2=O)cc1 (stereo not drawn)	XF 498 CNS	> 100 µM
O=S1(=O)C[C@H](O)[C@H](O)CS1	XF 498 CNS	> 100 µM
O=C(CCn1[nH]c(=O)c(Cl)c(Cl)c1=O)NO	XF 498 CNS	> 100 µM

Here is another molecule to look at.
IN: I have this molecule here, COC(=O)C(=Cc1cc(OC)ccc1OC)C(=O)OC , and I need its recorded TGI.
OUT: 47.4 µM

----------
Test system: HS 578T breast
ASSAY_PROTOCOL: NCI tumour cell line growth inhibition, 48 h
REPORTED_METRIC: GI50

IN: I have this compound here, CCCCCCCCCCCCOC1C(C(COC2OC(C3COC(C)(C)O3)C3OC(C)(C)OC23)NC(=O)Nc2ccc(C(=O)O)cc2)OC2OC(C)(C)OC21 (centres undefined) , and I need its recorded GI50.
OUT: 3460 nM

IN: And what about the compound O=C(Cc1ccc(/C=C/C(=O)c2ncc[nH]2)cc1)Nc1cc(F)c(F)c(F)c1 ?
OUT: 7300 nM

----------
Tested on: SK-OV-3 ovarian
ASSAY_PROTOCOL: NCI tumour cell line growth inhibition, 48 h
Each entry below carries its recorded TGI.
State the answer as a number, implicitly in µM.

Worked set:
COMPOUND	TGI / µM
Cc1cc(I)cc(CN(C)CCCN2CCCCCCC2)c1O	35.9
CCOC(=O)CCCn1c(SC)nc2[nH]cc(-c3ccccc3)c2c1=O	93.6

Here is another compound to look at.
IN: I have this compound here, CCC[CH2][Sn]1([CH2]CCC)[O]N=C(c2ccccc2)C(c2ccccc2)[O]1 (stereo not given) , and I need its recorded TGI.
OUT: 12.7

----------
Test system: A498 renal
ASSAY_PROTOCOL: NCI tumour cell line growth inhibition, 48 h
Each entry below carries its recorded TGI.
State the answer as a number, implicitly in µM.

Worked set:
STRUCTURE_SMILES_STRING	U	TGI
CCN(CC)CCOc1ccc(-c2nc3cc(Cl)ccc3s2)cc1	µM	3.83
COc1cc([C@H]2Oc3cc(O)c4c(=O)cc(-c5ccccc5)oc4c3O[C@@H]2CO)ccc1O	µM	73.4

IN: Provide value of TGI for this record tested with A498 renal: O=C(CNc1ccc(Cl)cc1)Nc1ccc(-c2nc3ccccc3s2)cc1
OUT: 25

----------
Tested on: CCRF-CEM leukemia
ASSAY_PROTOCOL: NCI tumour cell line growth inhibition, 48 h; in the data active means GI50 below about 0.43 µM; inactive means the rest
Answer with one of the outcomes y for active, n for inactive

MOLECULE	TARGET_SYSTEM	LABEL_VALUE
Cn1c2ccccc2c2c3c(c4c5cc(Br)ccc5n(C)c4c21)C(=O)N(O)C3=O	CCRF-CEM leukemia	y
CCN1CCN(C(c2ccc(C(F)(F)F)cc2)c2ccc3cccnc3c2O)CC1 (centres undefined)	CCRF-CEM leukemia	n

IN: For O=C(OC(CNc1cc(=O)n(Cc2ccccc2)c(=O)n1Cc1ccccc1)CN1CCCC1)c1ccccc1 (centres undefined) , what call appears in the results of this test?
OUT: n

IN: And what about the molecule COc1ccc(C(C)=O)cc1N1C(=O)C2C(C1=O)C1(c3ccccc3)C(=O)C2(c2ccccc2)C(c2ccc(C)cc2)=C1c1ccc(C)cc1 (centres undefined) ?
OUT: n

IN: And what about the molecule N#Cc1c(NN)n(C2OC(CO)C(O)C2O)c2ncnc(N)c12 (centres undefined) ?
OUT: y

IN: And what about the molecule COc1ccc(-n2cc(-c3cc(OC)c(OC)c(OC)c3)c(C(=O)C(F)(F)F)c2C)cc1 ?
OUT: n

IN: And what about the molecule CCOC(=O)CCCn1c(SC)nc2[nH]cc(-c3ccccc3)c2c1=O ?
OUT: n

IN: And what about the molecule CCCCCCCCCCCCCC1=NC(C)(C)CN1C(C)C ?
OUT: n

IN: And what about the molecule CCN(CC)c1ccc2c(c1)OC(N)=C(C#N)C2c1cc(OC)c2c(c1)OCO2 (centres undefined) ?
OUT: y

----------
Test system: UACC-62 melanoma
ASSAY_PROTOCOL: NCI tumour cell line growth inhibition, 48 h
Each entry below carries its recorded TGI.

Worked set:
STRUCTURE_SMILES_STRING	TGI
COC(=O)C(=Cc1cc(OC)ccc1OC)C(=O)OC	73.7 µM
CC(C)=CC/C=C(/C)[C@H]1CC[C@]2(C)[C@@H]1CC[C@@H]1[C@@]3(C)CCCNC(C)(C)[C@@H]3CC[C@]12C	20.1 µM

IN: I have this compound here, Nc1ncnc2c1ccn2C/C=C\CO , and I need its recorded TGI.
OUT: > 100 µM

----------
Each entry below carries its recorded GI50.
System: SK-MEL-2 melanoma
ASSAY_PROTOCOL: NCI tumour cell line growth inhibition, 48 h

COMPOUND	GI50
CCCCCCCCCCCCOC1C(C(COC2OC(C3COC(C)(C)O3)C3OC(C)(C)OC23)NC(=O)Nc2ccc(C(=O)O)cc2)OC2OC(C)(C)OC21 (stereo not drawn)	2.23 µM
COc1ccc(-n2cc(-c3cc(OC)c(OC)c(OC)c3)c(C(=O)C(F)(F)F)c2C)cc1	> 100 µM
CCC(C)n1ncn(-c2ccc(N3CCN(c4ccc(OCC5COC(Cn6cncn6)(c6ccc(Cl)cc6Cl)O5)cc4)CC3)cc2)c1=O (stereo not drawn)	13.8 µM

Here is another compound to look at.
IN: I have this compound here, Cn1nc(N)c2cc([C@@H]3Nc4ccc5[nH]ncc5c4[C@H]4C5CCC(C5)[C@@H]34)ccc21 (stereo partly drawn) , and I need its recorded GI50.
OUT: 11.1 µM

----------
System: HCT-116 colon
ASSAY_PROTOCOL: NCI tumour cell line growth inhibition, 48 h
REPORTED_METRIC: TGI

Worked set:
COMPOUND	READING
CS(=O)(=O)Nc1ccc2c(c1)oc(=O)c1ccccc12	> 100 µM
O=C1/C(=C/c2ccc(Br)cc2)COc2ccc(O)c(O)c21	2.4 µM
COc1cc([C@H]2Oc3cc(O)c4c(=O)cc(-c5ccccc5)oc4c3O[C@@H]2CO)ccc1O	> 100 µM
CC(C)c1ccc2c(c1)CC[C@@H]1[C@@](C)(C(=O)O)CCC[C@]21C	19.8 µM
COCC1OC(Sc2ccccc2)C(O)C(OC)C1OC (stereo unspecified)	> 100 µM

IN: I have this compound here, CC1(c2cccs2)CC(c2cccs2)=C(C#N)C(=C(C#N)C#N)N1 (stereo unspecified) , and I need its recorded TGI.
OUT: 31.6 µM

IN: And what about the compound CO/N=C/c1cc(OC)c(OC)c(OC)c1 ?
OUT: > 100 µM

IN: And what about the compound N=C1/C(=C/c2ccc(F)cc2)C(=O)N=C2SC=NN12 ?
OUT: > 100 µM

IN: And what about the compound O=C(O)c1ccc(Nc2c3ccccc3nc3ccccc23)cc1 ?
OUT: > 100 µM

IN: And what about the compound O=C(O)CC(CC(=O)O)C(=O)O ?
OUT: > 100 µM

IN: And what about the compound COc1ccc(C(C)=O)cc1N1C(=O)C2C(C1=O)C1(c3ccccc3)C(=O)C2(c2ccccc2)C(c2ccc(C)cc2)=C1c1ccc(C)cc1 (stereo unspecified) ?
OUT: > 100 µM

----------
Each entry below carries its recorded TGI.
Tested on: TK-10 renal
ASSAY_PROTOCOL: NCI tumour cell line growth inhibition, 48 h

Worked set:
STRUCTURE_SMILES_STRING	TARGET_SYSTEM	READING
CC(=O)c1ccc(NCc2cc(O)ccc2O)cc1	TK-10 renal	29 µM
CN(CC(=O)O)c1ncc2c(n1)-c1ccccc1SC2	TK-10 renal	> 100 µM
COc1ccc(CN2C(=O)/C(=C\C(=O)c3ccc(OCCN4CCCCC4)cc3)c3ccccc32)cc1	TK-10 renal	3.18 µM
CN(C)N=Nc1ccc(NC=O)cc1	TK-10 renal	> 100 µM

Here is another compound to look at.
IN: I have this compound here, N=C1/C(=C/c2ccc(F)cc2)C(=O)N=C2SC=NN12 , and I need its recorded TGI.
OUT: > 100 µM

----------
System: SN12C renal
ASSAY_PROTOCOL: NCI tumour cell line growth inhibition, 48 h
REPORTED_METRIC: TGI

Worked set:
COMPOUND	TARGET_SYSTEM	TGI
CCOc1cc2c(OCc3ccccc3)cc3c4cc(OC)c(OC)cc4c[n+](C)c3c2cc1OC	SN12C renal	> 100 µM
Cc1nn(-c2ccccc2)c2nc(N3CCOCC3)nnc12	SN12C renal	> 100 µM
C=C1CC[C@@H]2[C@](C)(COC(C)=O)[C@H](OC(C)=O)CC[C@@]2(C)[C@@H]1CC(Sc1ccccc1)C1=CCOC1=O (some centres undefined)	SN12C renal	7.07 µM
NS(=O)(=O)c1ccc(N=Nc2nc3[nH]c(=O)[nH]c(=O)c3[nH]2)cc1	SN12C renal	> 100 µM
CC(C)CC1C(=O)NCCC(NC(=O)C(Cc2ccc(OC(C)(C)C)cc2)NC(=O)OC(C)(C)C)C(=O)NC(Cc2ccccc2)C(=O)NC(Cc2ccccc2)NC1=O (centres undefined)	SN12C renal	39.8 µM

IN: Provide value of TGI for this record tested with SN12C renal: CC(C)C(=O)[C@@]1(C)SC[C@H]2CCN=C21
OUT: > 100 µM

IN: And what about the compound COc1ccc(/C=C(/C(=O)N2CCN(c3ccccc3)CC2)c2cc(OC)c(OC)c(OC)c2)cc1O ?
OUT: > 100 µM

IN: And what about the compound CN(C)c1ccc(C(C=C2c3ccccc3Sc3ccccc32)=C(C#N)C#N)cc1 ?
OUT: > 100 µM

IN: And what about the compound CN(Cc1cnc2nc(N)nc(N)c2n1)c1ccc(C(=O)NC(CCC(=O)NCCC(P(=O)(O)O)P(=O)(O)O)C(=O)O)cc1 (centres undefined) ?
OUT: > 100 µM

Source listed as PubChem BioAssay (NCI).
